Target: T1, human GLP-2R (glucagon-like peptide-2 receptor) (human, UniProt O95838 1-553)
T1 sequence (looked up): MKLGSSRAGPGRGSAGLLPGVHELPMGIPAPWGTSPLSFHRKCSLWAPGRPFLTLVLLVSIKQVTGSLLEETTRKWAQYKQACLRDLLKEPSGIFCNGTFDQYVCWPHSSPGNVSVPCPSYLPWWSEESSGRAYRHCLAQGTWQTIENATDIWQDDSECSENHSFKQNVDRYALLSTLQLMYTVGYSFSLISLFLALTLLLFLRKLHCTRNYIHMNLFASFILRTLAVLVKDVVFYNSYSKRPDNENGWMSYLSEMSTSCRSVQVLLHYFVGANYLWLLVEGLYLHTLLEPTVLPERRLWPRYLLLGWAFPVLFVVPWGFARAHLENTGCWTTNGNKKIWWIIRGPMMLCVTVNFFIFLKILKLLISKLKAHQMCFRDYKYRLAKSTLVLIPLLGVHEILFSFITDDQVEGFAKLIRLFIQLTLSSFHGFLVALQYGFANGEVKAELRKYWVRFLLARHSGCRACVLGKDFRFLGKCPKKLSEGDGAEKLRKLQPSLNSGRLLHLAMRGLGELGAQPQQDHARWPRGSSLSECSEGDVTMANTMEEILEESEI
Experiment: cell-based or functional assay
Where no end group is shown, it is not given here. [ ]: non-standard residue; d: D form. The star is where a group is joined. Palmitoyl = CCCCCCCCCCCCCCCC(=O)*; Aib = CC(C)(N)C(=O)O
measured_property: cAMP assay: logEC50 GLP-2R

>>> experimental_result("Palmitoyl-HADGTFISDYSTILDNLAARDFINWLIATKITKNDWKHNITQ [Compound no. 52]")
8.1
>>> experimental_result("Palmitoyl-HADGTFISDYSTILDELAARDFINWLIQTKITKNDWKHNITQ [Compound no. 48]")
7.6
>>> experimental_result("Palmitoyl-HADGTFISDYST[Aib]LDNLAARDFINWLIQTKITKNDWKHNITQ [Compound no. 53]")
8.2
